Every entry's value here was drawn from the RNAGym collection of RNA variant scans (doi:10.1073/pnas.2313332121).

B1: TPR t1 (parent)
chain: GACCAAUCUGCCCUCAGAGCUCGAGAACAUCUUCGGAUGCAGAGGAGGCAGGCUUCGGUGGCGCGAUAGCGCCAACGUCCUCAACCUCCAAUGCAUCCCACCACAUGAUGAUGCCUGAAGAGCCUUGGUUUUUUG

# Variants of: B1
# ASSAY_NAME: polymerase ribozyme fitness, log enrichment relative to wild type (log ratio); higher = more active; in vitro selection for triplet polymerase activity
READOUT_KIND: polymerase ribozyme fitness (log ratio)
# output: bare number, no unit

The cases that follow already have their polymerase ribozyme fitness (log ratio) on record.
| MUTANT_DESIGNATION | VAL |
| --- | --- |
| C3U A6U G57A G120C | 0.153 |
| U7A C13G U32C U38G G63C | -2.61 |
| G10A C49A | 0.131 |
| G10A C70G G120U | -1.35 |
| C72A A91C G127A | -2.21 |

Quick check: polymerase ribozyme fitness (log ratio) of C49G C115U ?
-1.48

Quick check: polymerase ribozyme fitness (log ratio) of C12U G47A G113U ?
-3.45

Quick check: polymerase ribozyme fitness (log ratio) of C3G C22A C124G G128C ?
-3.09

Quick check: polymerase ribozyme fitness (log ratio) of C11A A27G A41U C49G G61U ?
-3.34

Quick check: polymerase ribozyme fitness (log ratio) of C28U G45A C70U C124U ?
-2.79

Quick check: polymerase ribozyme fitness (log ratio) of A37U G45A C72G ?
-1.92
